The following molecules were reported with IC50 values on P-selectin (Homo sapiens, UniProt P16109) in different studies.
Target: P-selectin (Homo sapiens, UniProt P16109)
Sequence (P16109 whole entry): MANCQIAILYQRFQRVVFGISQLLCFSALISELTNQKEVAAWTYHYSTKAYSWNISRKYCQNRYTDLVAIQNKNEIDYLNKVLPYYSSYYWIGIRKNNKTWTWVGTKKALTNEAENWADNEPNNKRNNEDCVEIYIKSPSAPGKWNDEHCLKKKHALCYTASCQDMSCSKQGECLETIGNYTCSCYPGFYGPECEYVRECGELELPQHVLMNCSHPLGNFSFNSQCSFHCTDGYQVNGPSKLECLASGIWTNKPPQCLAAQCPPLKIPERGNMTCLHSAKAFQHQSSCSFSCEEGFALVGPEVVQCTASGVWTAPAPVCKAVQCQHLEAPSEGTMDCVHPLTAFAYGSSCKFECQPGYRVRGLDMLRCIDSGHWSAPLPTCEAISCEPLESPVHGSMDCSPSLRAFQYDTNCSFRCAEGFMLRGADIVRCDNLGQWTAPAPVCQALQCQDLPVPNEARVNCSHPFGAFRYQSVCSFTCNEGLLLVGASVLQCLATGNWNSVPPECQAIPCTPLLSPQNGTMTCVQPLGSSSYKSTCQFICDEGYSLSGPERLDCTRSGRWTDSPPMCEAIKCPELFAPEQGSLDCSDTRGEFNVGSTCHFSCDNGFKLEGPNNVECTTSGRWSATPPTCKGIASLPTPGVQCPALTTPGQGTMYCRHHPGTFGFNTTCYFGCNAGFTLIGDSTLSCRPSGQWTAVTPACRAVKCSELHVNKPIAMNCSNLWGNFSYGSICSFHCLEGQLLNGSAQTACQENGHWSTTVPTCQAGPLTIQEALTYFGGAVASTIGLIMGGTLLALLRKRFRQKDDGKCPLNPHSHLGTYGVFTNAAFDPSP
met if IC50 is below 7 µM. not met if not; exact matches included in not met.

# input Please check: IC50 for `Cc1ccc(C(=O)O)cc1NC(=O)CCc1cc(O)c(O)c(O)c1` , strictly under 7 µM or not?
# output met

# input Does the reported IC50 of `COC(=O)[C@H](O[C@@H]1O[C@@H](C)[C@@H](O)[C@@H](O)[C@@H]1O)[C@@H](O[C@@H]1O[C@H](CO)[C@H](O)[C@H](O[C@H](Cc2ccccc2)C(=O)O)[C@H]1O)C(=O)OC` stay below 7 µM?
# output not met

# input Is 7 µM strictly greater than the molecule's reported IC50? molecule: `O=C(O)c1c(O)c(Cc2ccsc2)nc2c3c(ccc12)CCCC3`
# output not met

# input Record `COc1ccc(C2(C(=O)O)CCCCC2)cc1[C@H]1O[C@@H](C)[C@H](O)[C@H](O)[C@@H]1O` : is its IC50 strictly below 7 µM?
# output not met

# input Consider the molecule `O=C(O)Cc1ccc(-c2ccccc2NC(=O)/C=C/c2ccc(O)c(O)c2O)s1` . Is its IC50 strictly less than 7 µM?
# output met

# input Lab note: confirm whether the reported IC50 for this molecule is below 7 µM, equality not counting. molecule: COc1ccc(CCCC(=O)O)cc1C1OC(C)C(O)C(O)C1O (centres undefined)
# output met

# input Item `Cc1cccc2c(C(=O)O)c(O)c(Cc3ccc(Cl)cc3)nc12` : IC50 beneath 7 µM, strictly?
# output not met

# input Is IC50 strictly under 7 µM for the entry COc1ccc(C2(C(=O)O)CCCCC2)cc1C1OC(CO)C(O)C(O)C1O (centres undefined) ?
# output met
